target-entity: human neurokinin 2 (NK2) receptor (Homo sapiens)
Construct: expressed in transfected cells; host or cells: Chinese Hamster ovary (CHO) cells
Sequence (P21452 1-398): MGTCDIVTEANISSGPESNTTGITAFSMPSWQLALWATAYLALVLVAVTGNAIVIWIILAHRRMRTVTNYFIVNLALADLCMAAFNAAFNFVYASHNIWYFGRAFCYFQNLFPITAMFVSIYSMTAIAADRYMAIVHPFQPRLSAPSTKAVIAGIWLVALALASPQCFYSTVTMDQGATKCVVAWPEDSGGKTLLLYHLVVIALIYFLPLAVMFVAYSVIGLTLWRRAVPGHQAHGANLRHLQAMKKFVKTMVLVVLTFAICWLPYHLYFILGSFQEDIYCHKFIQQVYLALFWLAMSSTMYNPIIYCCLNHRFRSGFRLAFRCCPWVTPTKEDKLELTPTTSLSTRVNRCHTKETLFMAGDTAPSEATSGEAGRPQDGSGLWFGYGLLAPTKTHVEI
protocol-details: Neurokinin Receptor Binding Assay, NK2
condition-summary: 1 μM dose; [3H]-Neurokinin A; CHO cell membranes; read-out: % Inhibition NK2 (1 μM dose)
Given measured inhibition at 1 µM, output rule met if it is greater than or equal to 20% and rule not met if not.

compound: CON=C(COCc1noc(C(C)(C)C)n1)C(CCN1CCC(O)(c2ccccc2)CC1)c1ccc(Cl)c(Cl)c1 (centres unmarked) [Example 22AL]
discrete-label: rule met
//
compound: NC(CON=C(COCc1cc(C(F)(F)F)cc(C(F)(F)F)c1)C(CCN1CCC(N2CCCCC2)CC1)c1ccc(Cl)c(Cl)c1)=NO (centres unmarked) [Example 39F]
discrete-label: rule met
//
compound: CON=C(COCc1cccc(C)c1F)C(CCN1CCC(O)(c2ccccc2)CC1)c1ccc(Cl)c(Cl)c1 (centres unmarked) [Example 22AK]
discrete-label: rule met
//
compound: CN1CCN(N=C(COCc2cc(C(F)(F)F)cc(C(F)(F)F)c2)C(CCN2CCC(O)(c3ccccc3)CC2)c2ccc(Cl)c(Cl)c2)CC1 (centres unmarked) [Example 7]
discrete-label: rule not met
//
compound: CON=C(COCc1cc(C(F)(F)F)cc(C(F)(F)F)c1)C(CCN1CCC(C(=O)N2CCCC2)CC1)c1ccc(Cl)c(Cl)c1 (centres unmarked) [Example 42L]
discrete-label: rule met
//
compound: CCOC(=O)C=C(COCc1cc(C(F)(F)F)cc(C(F)(F)F)c1)C(CCN1CCC(O)(c2ccccc2)CC1)c1ccc(Cl)c(Cl)c1 (centres unmarked) [Example 2]
discrete-label: rule not met
//
compound: OC1(c2ccccc2)CCN(CCC(C(COCc2cc(C(F)(F)F)cc(C(F)(F)F)c2)=NOCc2ccccc2)c2ccc(Cl)c(Cl)c2)CC1 (centres unmarked) [Example 1C]
discrete-label: rule not met
//
compound: OCCN(CC=C(COCc1cc(C(F)(F)F)cc(C(F)(F)F)c1)C(CCN1CCC(O)(c2ccccc2)CC1)c1ccc(Cl)c(Cl)c1)CCO (centres unmarked) [Example 35C]
discrete-label: rule not met

The measured values listed here are drawn from patent US5840725A.
